Attribution: patent US8778882B2

System: mouse pre-osteoblastic cell MC3T3-E1
Assay: Calcium deposition amount by Calcium C Test Wako
Assay type: cell-based
Conditions: Mus musculus, MC3T3-E1; flavonoid comparison, Calcium C Test Wako, relative to 0.2% (v/v) ethanol negative control
Lab note - cut at 300% for activity at 20 µM: y if strictly below, n if not.

O=c1cc(-c2ccc(O)cc2)oc2cc(O)cc(O)c12 :: y
O=C(/C=C/c1ccccc1)c1ccccc1 :: y
O=C1c2c(O)cc(O)cc2O[C@H](c2ccc(O)c(O)c2)[C@H]1O :: y

# check: activity at 20 µM < 300% for `O=C1C[C@@H](c2ccc(O)cc2)Oc2cc(O)cc(O)c21`
y

Confirm or reject: activity at 20 µM of O=C1CC(c2ccccc2)Oc2ccccc21 (centres unmarked) lies strictly below 300%
n

---

Examples of compounds with documented activity at 20 µM follow.
Test system: mouse pre-osteoblastic cell MC3T3-E1
Assay: Calcium deposition amount by Calcium C Test Wako
Type: cell-based
Conditions: Mus musculus, MC3T3-E1; flavonoid comparison, Calcium C Test Wako, relative to 0.2% (v/v) ethanol negative control
Answer as a quantity: numeral, then unit.

Consider the following illustrative entries.
O=c1c(O)c(-c2ccc(O)cc2)oc2cc(O)cc(O)c12 :: 305%
O=c1c(O)c(-c2ccccc2)oc2ccccc12 :: 295%
O=c1cc(-c2ccccc2)oc2ccccc12 :: 158%

For the compound `O=c1c(O)c(-c2ccc(O)c(O)c2)oc2cc(O)cc(O)c12` , the measured activity at 20 µM on mouse pre-osteoblastic cell MC3T3-E1 was 118%

---

System: mouse pre-osteoblastic cell MC3T3-E1
Test: Alkaline phosphatase activity in mouse pre-osteoblastic cells
Assay type: cell-based
Settings: flavonoid comparison, method of Experiment 1, relative to 0.2% (v/v) ethanol negative control
Measured attribute: Relative Alkaline Phosphatase Activity (%)
Numbers only here, please. The scale is %.

O=C1/C(=C/c2ccc(O)c(O)c2)Oc2cc(O)ccc21 [Sulfuretin] :: 126
COc1ccc([C@@H]2CC(=O)c3c(O)cc(O[C@@H]4O[C@H](CO[C@@H]5O[C@@H](C)[C@H](O)[C@@H](O)[C@H]5O)[C@@H](O)[C@H](O)[C@H]4O)cc3O2)cc1O [Hesperidin] :: 107
COc1ccc([C@@H]2CC(=O)c3c(O)cc(O)cc3O2)cc1O [Hesperetin] :: 116
CC(C)Oc1ccc2c(=O)c(-c3ccccc3)coc2c1 [Ipriflavone, reference compound] :: 114
O.Oc1cc(O)c2c(c1)O[C@H](c1ccc(O)c(O)c1)[C@@H](O)C2 [Catechin] :: 118

Field Relative Alkaline Phosphatase Activity (%) (entry C[C@@H]1O[C@@H](OC[C@H]2O[C@@H](Oc3c(-c4ccc(O)c(O)c4)oc4cc(O)cc(O)c4c3=O)[C@H](O)[C@@H](O)[C@@H]2O)[C@H](O)[C@H](O)[C@H]1O [Rutin] ) reads 109

Input Oc1cc(O)c2cc(O)c(-c3ccc(O)c(O)c3)[o+]c2c1 [Cyanidin] . Output Relative Alkaline Phosphatase Activity (%): 115
